Cited source: the supplement of paper PMC10567573

# test-method-notes: protein stability index of a GFP-peptide fusion (GPS, HEK-293T) (PSI 1-6); higher = more stable;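 further: 24-mer peptide tiles fused after GFP, lentivirally expressed, FACS-sorted into six equal bins by GFP/DsRed ratio, decoded by Illumina sequencing, PSI is the read-weighted mean bin number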
# test-settings: treatment: DMSO; c terminus: a fixed tail appended
quantity-name: protein stability index
Reply with the value as a number alone.

Prompt: Suppose we examine the sequence EVGMVKCGSRRERCGYRLVRRQRS [ESR2] ; what protein stability index value has been reported?
Completion: 3.19

Prompt: Suppose we examine the sequence DSKSGGSGSESDHTTRSSLRGPRE [DVL3] ; what protein stability index value has been reported?
Completion: 5.31

Prompt: Suppose we examine the sequence VIASGSSVGHNNLIPLANTGIVNH [CARM1] ; what protein stability index value has been reported?
Completion: 3.11

###

Give protein stability index for every item shown.
# test-method-notes: protein stability index of a GFP-peptide fusion (GPS, HEK-293T) (PSI 1-6); higher = more stable
# test-settings: treatment: DMSO; c terminus: a fixed tail appended
Reply with the value as a number alone.

Prompt: Suppose we examine the sequence LSRCEFQRAKCKDPQLEIAYRGNC [SMOC2] ; what protein stability index value has been reported?
Completion: 3.23

Prompt: Suppose we examine the sequence AQDPDVGTNTVSFYTLSPNSHFSL [PCDHGC5] ; what protein stability index value has been reported?
Completion: 2.57

Prompt: Suppose we examine the sequence PGSILYSSSGDLADLENEDIFPEL [DLC1] ; what protein stability index value has been reported?
Completion: 4.69

Prompt: Suppose we examine the sequence SYRETRRKEGIVKLKPHEEPLRSE [PTPN9] ; what protein stability index value has been reported?
Completion: 4.66

Prompt: Suppose we examine the sequence NLITTVTPEKKAEEERDEEEDKRR [EPB41L3] ; what protein stability index value has been reported?
Completion: 5.61

Prompt: Suppose we examine the sequence WQYLSGGKVKLQQNPGKFDELDMS [TBC1D10A] ; what protein stability index value has been reported?
Completion: 3.16

Prompt: Suppose we examine the sequence LSFYDAERHCHLYTFHARFGEVRP [TRIM35] ; what protein stability index value has been reported?
Completion: 2.34

Prompt: Suppose we examine the sequence FRTDPEAKVKLVFVEDQAVVETVF [ZSWIM9] ; what protein stability index value has been reported?
Completion: 2.46

Prompt: Suppose we examine the sequence DCPMDSSSSRDTDWVVVKEPVIKV [PI4K2A] ; what protein stability index value has been reported?
Completion: 3.6

Prompt: Suppose we examine the sequence QIEGLNEELAYLKKNHEEEMKEFS [KRT15] ; what protein stability index value has been reported?
Completion: 5.25

Prompt: Suppose we examine the sequence KLATCYFFTVEFGLCKQDGQLRVF [TPH1] ; what protein stability index value has been reported?
Completion: 2.59

Prompt: Suppose we examine the sequence DMWSLGCILVEMHTGEPLFSGSNE [DYRK1B] ; what protein stability index value has been reported?
Completion: 1.97

Prompt: Suppose we examine the sequence QGEEVAQRSTVFKTTIPEEEEEEE [LMNB1] ; what protein stability index value has been reported?
Completion: 5.63

Prompt: Suppose we examine the sequence YCRLKKCLKVGMRREAVQRGRMPP [NR2F2] ; what protein stability index value has been reported?
Completion: 2.84

Prompt: Suppose we examine the sequence AFYDVTGGMSHLHTFRATFQEPLY [TRIM14] ; what protein stability index value has been reported?
Completion: 2.31

Prompt: Suppose we examine the sequence YERLARILLQEIPIRSISLRSCYF [FBXO39] ; what protein stability index value has been reported?
Completion: 2.92

Prompt: Suppose we examine the sequence RPEKHTKEQILEFLVLEQFLTILP [ZNF232] ; what protein stability index value has been reported?
Completion: 3.03

Prompt: Suppose we examine the sequence RRKSEAGSGAASSSGEDKENDGFV [CDC25B] ; what protein stability index value has been reported?
Completion: 5.42

Prompt: Suppose we examine the sequence FLLRNSQRTVGQLMELCRLYHRAD [EDARADD] ; what protein stability index value has been reported?
Completion: 2.12

Prompt: Suppose we examine the sequence GCDPLVKPVGRQACDLQPCPTEPP [ADAMTSL2] ; what protein stability index value has been reported?
Completion: 4.2

Prompt: Suppose we examine the sequence QQLKEFDGKSLVSVTKEGLELPED [HSP90AB1] ; what protein stability index value has been reported?
Completion: 5.29

Prompt: Suppose we examine the sequence EADGSTNNGIFQINSRRWCSNLTP [SPACA3] ; what protein stability index value has been reported?
Completion: 3.43

Prompt: Suppose we examine the sequence TGMWWRHLVAGGGAGAVSRTCTAP [SLC25A25] ; what protein stability index value has been reported?
Completion: 2.32

Prompt: Suppose we examine the sequence RTSVGVAVLGGFLYAVGGQDGVSC [KLHL20] ; what protein stability index value has been reported?
Completion: 2.37

Prompt: Suppose we examine the sequence TSQKIAARAFAQRYLADLLPSVFG [RSPH3] ; what protein stability index value has been reported?
Completion: 2.12

Prompt: Suppose we examine the sequence EETKKLANKYLVEDVLLLNFEEMR [KLHL14] ; what protein stability index value has been reported?
Completion: 3.23

Prompt: Suppose we examine the sequence FVLAEDGRRCKKCTEGPIDLVFVI [MATN2] ; what protein stability index value has been reported?
Completion: 3.06

Prompt: Suppose we examine the sequence SPFAQFACDNGLNVRGGKPDDITV [PPTC7] ; what protein stability index value has been reported?
Completion: 4.22

Prompt: Suppose we examine the sequence GASVRGLHPVQKVILNYPSPWDQE [TRAF3IP2] ; what protein stability index value has been reported?
Completion: 3.79

Prompt: Suppose we examine the sequence SVVDHPMPEERASKYENYFSASER [HESX1] ; what protein stability index value has been reported?
Completion: 4.73

Prompt: Suppose we examine the sequence TRSKSDPVLHPSEERAAPVLSCEA [FAM189A2] ; what protein stability index value has been reported?
Completion: 5.49

Prompt: Suppose we examine the sequence LLFSLTQFSVVSVVAYLALAALSA [RTN1] ; what protein stability index value has been reported?
Completion: 3.4

Prompt: Suppose we examine the sequence KYDPKTQEWSFLPSITRKRRYVAS [KLHL12] ; what protein stability index value has been reported?
Completion: 3.15

Prompt: Suppose we examine the sequence NGTGDSNDFWRIEVVNRKFGNRIK [POMT2] ; what protein stability index value has been reported?
Completion: 3.25

Prompt: Suppose we examine the sequence EQKVLSRLVESLSTQIRALTEQQE [RASAL3] ; what protein stability index value has been reported?
Completion: 2.65

Prompt: Suppose we examine the sequence PFSSVTEEELNFEKGETMEVIEKP [NCK2] ; what protein stability index value has been reported?
Completion: 5.38

Prompt: Suppose we examine the sequence RKMEVEELSPLALGRFSLTPAEGD [CDC25B] ; what protein stability index value has been reported?
Completion: 4.66

Prompt: Suppose we examine the sequence MFPLHLAALNAHSDCCRKLLSSGF [ANKRD44] ; what protein stability index value has been reported?
Completion: 2.57

Prompt: Suppose we examine the sequence VQDEFLDTPCTNRGLPLLKTDFGS [DLC1] ; what protein stability index value has been reported?
Completion: 3.85

###

# test-method-notes: protein stability index of a GFP-peptide fusion (GPS, HEK-293T) (PSI 1-6); higher = more stable
# test-settings: treatment: DMSO; c terminus: a fixed tail appended
quantity-name: protein stability index
Reply with the value as a number alone.

Prompt: Suppose we examine the sequence RDQQVEAAQRALVEVLGPYEPLLS [RETREG3] ; what protein stability index value has been reported?
Completion: 3.9

Prompt: Suppose we examine the sequence PGGAPRVASRNLFPKDTLMNLHVY [CLPTM1] ; what protein stability index value has been reported?
Completion: 2.33

Prompt: Suppose we examine the sequence TDLVQFLLFKYQMKEPITKAEILE [MAGEA10] ; what protein stability index value has been reported?
Completion: 2.48

Prompt: Suppose we examine the sequence MLGKYNTPVSYRMAKTLVFSKVKT [ACSBG2] ; what protein stability index value has been reported?
Completion: 2.46

Prompt: Suppose we examine the sequence VQEAVLDKWVNDPHRMDRRLLALI [GOLPH3] ; what protein stability index value has been reported?
Completion: 2.29

Prompt: Suppose we examine the sequence KILAEAAKLVPMGFTTATEFHQRR [RAD51] ; what protein stability index value has been reported?
Completion: 2.56

Prompt: Suppose we examine the sequence AKVGPGLPDGCQPLQLLREMRQAL [CBY2] ; what protein stability index value has been reported?
Completion: 2.73

Prompt: Suppose we examine the sequence LLRHQRIHTGERPYKCPECGKSFS [ZNF263] ; what protein stability index value has been reported?
Completion: 2.71

Prompt: Suppose we examine the sequence CGNIKAPSLQAWNDAPCDKTFLFI [CD207] ; what protein stability index value has been reported?
Completion: 2.72

Prompt: Suppose we examine the sequence SSAGGAKAGQPESRALALFDIQKI [ZNF8] ; what protein stability index value has been reported?
Completion: 3.99

Prompt: Suppose we examine the sequence RPPFGAAAVPGTQLSPSPTPASQS [SNAP91] ; what protein stability index value has been reported?
Completion: 4.79

Prompt: Suppose we examine the sequence FQQPAPEYHQPQAPANVAKIQLRL [LOXL2] ; what protein stability index value has been reported?
Completion: 2.81

Prompt: Suppose we examine the sequence KKQAGRPKGSKGKEKDSPFKPKLY [RBBP5] ; what protein stability index value has been reported?
Completion: 3.74

Prompt: Suppose we examine the sequence SSYYKFKLTREVLSLFVQKLGNLM [ZER1] ; what protein stability index value has been reported?
Completion: 2.83

Prompt: Suppose we examine the sequence LGYAVSTFAMVKGYFFPTSARDCK [DHCR7] ; what protein stability index value has been reported?
Completion: 2.09

Prompt: Suppose we examine the sequence LLEKVPCTLEQDHFKKQTIYRFLK [FEM1C] ; what protein stability index value has been reported?
Completion: 2.38

Prompt: Suppose we examine the sequence NSRFQMLFTSFQEPPCEGNTFFCH [NETO1] ; what protein stability index value has been reported?
Completion: 2.23

Prompt: Suppose we examine the sequence IQQELIKQEQSIISEYEKSLQFDE [RPAIN] ; what protein stability index value has been reported?
Completion: 4.64

Prompt: Suppose we examine the sequence QLIYNHITTRVNSEQEHFLIVPFG [ADD1] ; what protein stability index value has been reported?
Completion: 2.41

Prompt: Suppose we examine the sequence AQRQACMYASSAPPSEPVPSLEDI [TBX5] ; what protein stability index value has been reported?
Completion: 4.92

Prompt: Suppose we examine the sequence KAALAALCPGDLIQAINGESTELM [PDLIM4] ; what protein stability index value has been reported?
Completion: 3.5

Prompt: Suppose we examine the sequence YPEQSKGFHKAGSMLPPVNFSIVP [SPATS1] ; what protein stability index value has been reported?
Completion: 2.65

Prompt: Suppose we examine the sequence NQHDTEMKYYIVHLKRHFMFRNHL [DYRK1B] ; what protein stability index value has been reported?
Completion: 2.45

Prompt: Suppose we examine the sequence KAKANGITMYAVGVGKAIEEELQE [MATN2] ; what protein stability index value has been reported?
Completion: 3.83

Prompt: Suppose we examine the sequence AGIVRVFSGTPPPPVLSFRLVHTT [FCHO1] ; what protein stability index value has been reported?
Completion: 1.99

Prompt: Suppose we examine the sequence YQDMIYAVGGRDDTTELSSAERYN [KLHL20] ; what protein stability index value has been reported?
Completion: 2.91
